assay: Antioxidant activity assessed as hydroxyl radical scavenging activity after 5 mins by ESR spectroscopy; parameters: concentration or dose not given beside the values
measurementKind: Activity (%)
// note: answer is a bare numeric in %

Entry "O=C(c1ccc(O)c(O)c1)c1cc2ccccc2oc1=O" has what Activity?
84.6

Entry "O=C(c1ccc(O)c(O)c1)c1cc2cc(Br)cc(O)c2oc1=O" has what Activity?
90.9

Entry "O=C(c1ccc(O)c(O)c1)c1cc2c(O)cc(O)cc2oc1=O" has what Activity?
84.2

Entry "O=C(c1ccc(O)c(O)c1)c1cc2cc(O)ccc2oc1=O" has what Activity?
84.8

Entry "Cc1ccc2oc(=O)c(C(=O)c3ccc(O)c(O)c3)cc2c1" has what Activity?
82.1

----------
system: Trypanosoma cruzi; assay: Antitrypanosomal activity against Trypanosoma cruzi Dm28c epimastigotes assessed as non-viable epimastigotes at 100 umol/L after 4 hrs by MTT assay relative to untreated control; type: functional
Would you kindly list Activity for each of these compounds?

Form entry - test system: Trypanosoma cruzi; read-out: Activity; compound: "O=C(c1ccc(O)c(O)c1)c1cc2cc(Br)cc(O)c2oc1=O"
24.1%

Form entry - test system: Trypanosoma cruzi; read-out: Activity; compound: "O=C(c1ccc(O)c(O)c1)c1cc2ccccc2oc1=O"
38.7%

Form entry - test system: Trypanosoma cruzi; read-out: Activity; compound: "Cc1ccc2oc(=O)c(C(=O)c3ccc(O)c(O)c3)cc2c1"
47.9%

Form entry - test system: Trypanosoma cruzi; read-out: Activity; compound: "O=C(c1ccc(O)c(O)c1)c1cc2cc(O)ccc2oc1=O"
46.4%

Form entry - test system: Trypanosoma cruzi; read-out: Activity; compound: CC1CS(=O)(=O)CCN1/N=C/c1ccc([N+](=O)[O-])o1 (stereo unspecified)
100%
